The values you see were collected from the supplement of paper PMC10567573.

B1: PHTF1 (parent)
chain: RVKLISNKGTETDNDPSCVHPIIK

- Variants of: B1
- PROCEDURE_TEXT: protein stability index of a GFP-peptide fusion (GPS, HEK-293T) (PSI 1-6); higher = more stable;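 further: lentivirally expressed fusions sorted by FACS into six bins by GFP to DsRed ratio, PSI derived from sequencing read proportions per bin multiplied by bin number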
- RUN_PARAMETERS: c terminus: a fixed tail appended
REPORTED_ENDPOINT: protein stability index
The answer should be a number; do not append a unit.

# query: protein stability index of entry RVKLISNKGTETDTDPSCVHPIIK [N14T]
4.16

# query: protein stability index of entry WVKLISNKGTETDNDPSCVHPIIK [R1W]
2.81

# query: protein stability index of entry RVKLISNKGTHTDNDPSCVHPIIK [E11H]
3.41

# query: protein stability index of entry RVKLISNKGTKTDNDPSCVHPIIK [E11K]
3.7

# query: protein stability index of entry TVKLISNKGTETDNDPSCVHPIIK [R1T]
4.2

# query: protein stability index of entry RVKLISNKGTEPDNDPSCVHPIIK [T12P]
4.29

# query: protein stability index of entry RVKLISNKGTETDNDPMCVHPIIK [S17M]
3.59

# query: protein stability index of entry RVKLISNKGTEVDNDPSCVHPIIK [T12V]
4.01

# query: protein stability index of entry RVSLISNKGTETDNDPSCVHPIIK [K3S]
4.33

# query: protein stability index of entry VVKLISNKGTETDNDPSCVHPIIK [R1V]
3.41

# query: protein stability index of entry RAKLISNKGTETDNDPSCVHPIIK [V2A]
4.41
